Each recorded value in this set is attributed to patent US9879036B2.

# target or test system: ALDH2*1/*1 (Homo sapiens, UniProt P05091)
# Construct: His-tag (N); made in house; host or cells: E. coli BL21 (pTrcHis vector)
# Sequence (P05091 18-517): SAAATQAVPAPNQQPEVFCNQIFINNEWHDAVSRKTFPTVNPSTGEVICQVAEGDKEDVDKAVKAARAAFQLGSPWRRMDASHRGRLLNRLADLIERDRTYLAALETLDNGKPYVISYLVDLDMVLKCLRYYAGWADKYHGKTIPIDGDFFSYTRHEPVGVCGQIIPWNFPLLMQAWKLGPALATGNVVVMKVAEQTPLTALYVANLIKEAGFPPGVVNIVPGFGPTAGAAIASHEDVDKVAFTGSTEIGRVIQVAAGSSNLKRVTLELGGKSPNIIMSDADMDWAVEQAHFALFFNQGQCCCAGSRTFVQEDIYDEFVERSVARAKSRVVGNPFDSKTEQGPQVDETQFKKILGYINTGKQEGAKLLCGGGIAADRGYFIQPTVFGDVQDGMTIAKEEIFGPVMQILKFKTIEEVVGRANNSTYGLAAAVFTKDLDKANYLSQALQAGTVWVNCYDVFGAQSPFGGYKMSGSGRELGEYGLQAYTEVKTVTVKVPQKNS
# procedure text: ALDH2 enzymatic activity, NADH accumulation at 340 nm, acetaldehyde substrate, wild type
# Format: biochemical
# applied conditions: 10 μM compound; relative to baseline enzymatic activity (100%)
assay readout: activity at 10 µM
# output: numeric value plus its unit

Example results:
> print(dat)
                                    compound      assay.readout   val
 1  COc1ccc(CNC(=O)c2cc(-c3c(CO)cccc3N(C)C)cnc2OCC2CC2)cc1F [AC15]  activity at 10 µM  143%
 2  COc1ccc(CNC(=O)c2cc(-c3ccccc3CO)cnc2OCC2CC2)cc1F [AC1]  activity at 10 µM  288%
 3  COc1ccc(CNC(=O)c2cc(-c3c[n+]([O-])ccc3CO)ccc2OCC2CC2)cc1F [AC13]  activity at 10 µM  215%
 4  COc1ccc(CNC(=O)c2cc(-c3c(F)cccc3CO)cnc2OCC2CC2)cc1F [AC19]  activity at 10 µM  214%
 5  COc1ccc(CNC(=O)c2cc(-c3c(F)cccc3CO)ccc2OCC2CC2)cc1F [AC22]  activity at 10 µM  313%
 6  COc1ccc(CNC(=O)c2cc(-c3cnccc3CO)ccc2OCC2CC2)cc1F [AC5]  activity at 10 µM  352%
 7  COc1ccc(CNC(=O)c2cc(-c3ccccc3CO)ccc2OCC2CC2)cc1F [AC2]  activity at 10 µM  328%
 8  COc1ccc(CNC(=O)c2cc(-c3sccc3CO)cnc2OCC2CC2)cc1F [AC26]  activity at 10 µM  352%
 9  COc1ccc(CNC(=O)c2cc(-c3cscc3CO)cnc2OCC2CC2)cc1F [AC24]  activity at 10 µM  321%
10  COc1ccc(CNC(=O)c2cc(-c3cscc3CO)ccc2OCC2CC2)cc1F [AC29]  activity at 10 µM  422%

Your task in this section: give activity at 10 µM for each listed record.
1. COc1ccc(CNC(=O)c2cc(-c3ccsc3CO)cnc2OCC2CC2)cc1F [AC25]
2. COc1ccc(CNC(=O)c2cc(-c3cccc(F)c3CO)ccc2OCC2CC2)cc1F [AC21]
3. COc1ccc(CNC(=O)c2cc(-c3cccnc3CO)cnc2OCC2CC2)cc1F [AC11]
4. COc1ccc(CNC(=O)c2cc(-c3ncccc3CO)cnc2OCC2CC2)cc1F [AC8]

1. 422%
2. 272%
3. 169%
4. 319%

Give me measured activity at 10 µM, please, for this compound: COc1ccc(CNC(=O)c2cc(-c3cccc(F)c3CO)cnc2OCC2CC2)cc1F [AC18]
171%

----------
# target or test system: ALDH2*1/*1 (Homo sapiens, UniProt P05091)
# Construct: His-tag (N); made in house; host or cells: E. coli BL21 (pTrcHis vector)
# procedure text: ALDH2 enzymatic activity, NADH accumulation at 340 nm, acetaldehyde substrate, wild type
# Format: biochemical
# applied conditions: 20 μM compound; relative to baseline enzymatic activity (100%)
// classify(record): look up activity at 20 µM in ranges bottom range = under 300%, center range = from 300% up to 400%, top range = 400% and over

> print(dat)
                                smiles.code  assigned.label
1  COc1ccc(CNC(=O)c2cc(-c3c(F)cccc3CO)cnc2OCC2CC2)cc1F    bottom range
2  COc1ccc(CNC(=O)c2cc(-c3cccnc3CO)ccc2OCC2CC2)cc1F    center range
3  COc1ccc(CNC(=O)c2cc(-c3ccccc3CO)ccc2OCC2CC2)cc1F       top range
4  COc1ccc(CNC(=O)c2cc(-c3ccccc3CO)ncc2OCC2CC2)cc1F    center range
5  COc1ccc(CNC(=O)c2cc(-c3cccnc3CO)cnc2OCC2CC2)cc1F    bottom range

GET /class?item= `COc1ccc(CNC(=O)c2cc(-c3cscc3CO)cnc2OCC2CC2)cc1F`
top range

Which of the defined bands does the recorded activity at 20 µM of `COc1ccc(CNC(=O)c2cc(-c3ccc(F)cc3CO)cnc2OCC2CC2)cc1F` sit within?
center range

Each compound maps to one class by activity at 20 µM. Which class for `COc1ccc(CNC(=O)c2cc(-c3ccsc3CO)cnc2OCC2CC2)cc1F` ?
center range

State the class of the compound shown: `COc1ccc(CNC(=O)c2cc(-c3ncccc3CO)cnc2OCC2CC2)cc1F`
center range

----------
Please provide measured activity at 2.5 µM for the entries that follow.
# target or test system: ALDH2*1/*1 (Homo sapiens)
# Construct: His-tag (N); made in house; host or cells: E. coli BL21 (pTrcHis vector)
# procedure text: ALDH2 enzymatic activity, NADH accumulation at 340 nm, acetaldehyde substrate, wild type
# Assay type: biochemical
# applied conditions: 2.5 μM compound; relative to baseline enzymatic activity (100%)
Answers are plain numbers, in %.

Known activity at 2.5 µM results, listed for orientation:
> print(dat)
                                   molecule  val
1  COc1ccc(CNC(=O)c2cc(-c3c(F)cccc3CO)cnc2OCC2CC2)cc1F [AC19]  132
2  COc1ccc(CNC(=O)c2cc(-c3c(F)cccc3CO)ccc2OCC2CC2)cc1F [AC22]  172
3  COc1ccc(CNC(=O)c2cc(-c3c(CO)cccc3N(C)C)cnc2OCC2CC2)cc1F [AC15]  124
4  COc1ccc(CNC(=O)c2cc(-c3ncccc3CO)ccc2OCC2CC2)cc1F [AC6]  208

Consider the record given below.
# return recorded activity at 2.5 µM for input COc1ccc(CNC(=O)c2cc(-c3cccnc3CO)ccc2OCC2CC2)cc1F [AC7]
133

----------
Assignment: determine reported activity at 20 µM for the given molecules.
# target or test system: ALDH2 (Homo sapiens)
# Construct: His-tag (N); made in house; host or cells: E. coli BL21
# Sequence (P05091 18-517): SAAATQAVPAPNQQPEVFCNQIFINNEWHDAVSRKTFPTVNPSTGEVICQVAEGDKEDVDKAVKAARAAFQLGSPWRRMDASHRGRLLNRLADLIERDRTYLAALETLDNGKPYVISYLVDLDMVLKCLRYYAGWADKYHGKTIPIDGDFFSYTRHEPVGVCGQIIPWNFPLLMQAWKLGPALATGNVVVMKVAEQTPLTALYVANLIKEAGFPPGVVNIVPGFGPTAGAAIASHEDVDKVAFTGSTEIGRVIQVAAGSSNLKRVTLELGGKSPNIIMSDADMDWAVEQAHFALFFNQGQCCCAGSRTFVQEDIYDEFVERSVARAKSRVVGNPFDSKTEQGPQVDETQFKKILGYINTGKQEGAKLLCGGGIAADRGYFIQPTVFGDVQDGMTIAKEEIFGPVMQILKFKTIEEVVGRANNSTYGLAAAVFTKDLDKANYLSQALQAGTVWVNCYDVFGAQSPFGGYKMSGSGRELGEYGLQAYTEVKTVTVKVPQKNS
# procedure text: ALDH2 activity with 20 μM of the compound (Table 3)
# Format: biochemical
# applied conditions: 20 μM compound

Here is how some molecules turned out for activity at 20 µM.
> print(dat)
                                smiles.code  target.or.test.system          val
1  COc1ccc(CNC(=O)c2cc(-c3cnccc3CO)cnc2OCC2CC2)cc1F   ALDH2 (Homo sapiens)       > 250%
2  COc1ccc(CNC(=O)c2cc(-c3ncccc3CO)ccc2OCC2CC2)c(C)c1F   ALDH2 (Homo sapiens)  150 to 250%
3  COc1ccc(CNC(=O)c2cc(-c3ncccc3CO)ccc2OC(C)C)cc1F   ALDH2 (Homo sapiens)       > 250%
4  COc1ccc(CNC(=O)c2cc(-c3ccncc3CO)cnc2OCC2CC2)cc1F   ALDH2 (Homo sapiens)       > 250%
5  COc1ccc(CNC(=O)c2cc(-c3ncccc3CO)ccc2OC2CCCCC2)cc1F   ALDH2 (Homo sapiens)       > 250%

I would be grateful if you could provide activity at 20 µM for each of the following entries.
1. COc1ccc(CNC(=O)c2cc(-c3sccc3CO)ccc2OCC2CC2)cc1F
2. O=C(NCc1ccc(C(F)(F)F)cc1)c1cc(-c2ccccc2CO)cnc1OCC1CC1

1: > 250%; 2: 100 to 150%

// each listed molecule needs a value for activity at 20 µM
1. COc1ccc(CNC(=O)c2cc(-c3n[nH]cc3CO)ccc2OCC2CC2)cc1F
2. COc1ccc(CNC(=O)c2cc(-c3c(F)cccc3CO)cnc2OCC2CC2)cc1F
3. COc1ccc(CNC(=O)c2cc(-c3ncccc3CO)ccc2OC)cc1F
4. COc1ccc(CNC(=O)c2cc(-c3ccccc3C(N)=O)cnc2OCC2CC2)cc1F

["> 250%", "> 250%", "150 to 250%", "100 to 150%"]
